Reference source: patent US20230374025A1

biological target: VEGFR2 (Homo sapiens); construct: purchased Carna 08-191; assay: Assay I: VEGFR2 kinase inhibition (HTRF KinEASE-TK); type: biochemical; settings: ATP 5 μM, substrate TK 1 μM
Sequence (P35968 20-1356): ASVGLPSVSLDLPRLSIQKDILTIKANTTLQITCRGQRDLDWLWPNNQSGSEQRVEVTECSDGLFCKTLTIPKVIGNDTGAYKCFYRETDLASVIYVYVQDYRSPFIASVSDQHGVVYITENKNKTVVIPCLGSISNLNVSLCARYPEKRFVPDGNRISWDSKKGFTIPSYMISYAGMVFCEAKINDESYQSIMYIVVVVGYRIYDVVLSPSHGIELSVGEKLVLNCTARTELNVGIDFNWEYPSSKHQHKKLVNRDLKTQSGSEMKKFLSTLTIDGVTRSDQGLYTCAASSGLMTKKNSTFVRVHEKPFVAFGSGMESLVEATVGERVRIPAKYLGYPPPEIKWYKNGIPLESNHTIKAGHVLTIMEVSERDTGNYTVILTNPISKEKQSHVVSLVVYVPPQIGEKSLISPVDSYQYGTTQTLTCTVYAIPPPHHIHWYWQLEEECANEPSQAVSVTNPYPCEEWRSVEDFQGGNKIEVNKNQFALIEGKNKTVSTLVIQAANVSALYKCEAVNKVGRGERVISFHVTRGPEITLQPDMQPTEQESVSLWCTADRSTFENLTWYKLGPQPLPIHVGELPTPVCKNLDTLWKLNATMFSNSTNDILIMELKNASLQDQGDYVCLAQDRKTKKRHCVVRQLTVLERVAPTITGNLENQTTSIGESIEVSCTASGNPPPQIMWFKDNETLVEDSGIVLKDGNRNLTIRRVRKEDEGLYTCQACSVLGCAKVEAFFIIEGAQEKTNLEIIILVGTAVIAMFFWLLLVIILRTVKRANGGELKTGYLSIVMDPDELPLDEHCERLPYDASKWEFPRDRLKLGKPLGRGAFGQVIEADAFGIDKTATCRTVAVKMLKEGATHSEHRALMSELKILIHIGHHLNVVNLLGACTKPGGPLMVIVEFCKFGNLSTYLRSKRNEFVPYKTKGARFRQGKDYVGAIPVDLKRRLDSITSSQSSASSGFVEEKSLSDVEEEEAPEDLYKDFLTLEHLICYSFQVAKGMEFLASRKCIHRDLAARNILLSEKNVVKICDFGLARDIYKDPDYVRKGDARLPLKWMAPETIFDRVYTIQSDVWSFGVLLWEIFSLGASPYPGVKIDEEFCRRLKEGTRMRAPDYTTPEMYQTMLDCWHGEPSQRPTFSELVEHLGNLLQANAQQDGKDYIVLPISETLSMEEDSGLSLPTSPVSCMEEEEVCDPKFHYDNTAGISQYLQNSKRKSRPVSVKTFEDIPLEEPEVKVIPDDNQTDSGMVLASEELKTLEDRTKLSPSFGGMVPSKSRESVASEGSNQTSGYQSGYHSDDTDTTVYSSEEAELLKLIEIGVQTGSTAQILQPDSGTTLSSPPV
Measured IC50 of individual entries
Reply with just the number (in nM).

Worked cases, IC50 given:
CCN1CCN(c2ccc(Nc3cc(N(C)C(=O)Nc4c(Cl)c(OC)cc(OC)c4Cl)ncn3)cc2)CC1 [Infigratinib, reference compound]    99
CC(Oc1ccc2[nH]nc(-c3nc4c([nH]3)CN(S(=O)(=O)C(C)C)C4)c2c1)c1c(Cl)cncc1Cl (stereo not shown)    96
C[C@@H](Oc1ccc2[nH]nc(-c3nc4c([nH]3)CN(C(=O)CN3CCC(C#N)C3)C4)c2c1)c1c(Cl)cncc1Cl (stereo partly shown)    6.7
CC(Oc1ccc2[nH]nc(-c3nc4c([nH]3)CN(C(=O)CN3CCOCC3)C4)c2c1)c1c(Cl)cncc1Cl (stereo not shown)    5.5
CC(Oc1ccc2[nH]nc(-c3nc4c([nH]3)CN(C(=O)[C@@H]3CCNC3)C4)c2c1)c1c(Cl)cncc1Cl (stereo partly shown)    5.6
CC(Oc1ccc2[nH]nc(-c3nc4c([nH]3)CN(C3CCN(C)CC3)CC4)c2c1)c1c(Cl)cncc1Cl (stereo not shown)    17.6

*Q* For the compound C[C@@H](Oc1ccc2[nH]nc(-c3nc4c([nH]3)CN(C(=O)N(C)C)C4)c2c1)c1c(Cl)cncc1Cl , what IC50 is on record?
*A* 1.7

*Q* Can you share its IC50? I mean this compound: CC(Oc1ccc2[nH]nc(-c3nc4c([nH]3)CN(C(=O)OCCC#N)C4)c2c1)c1c(Cl)cncc1Cl (stereo not shown)
*A* 27.5

*Q* Field request: IC50 | item: CC(Oc1ccc2[nH]nc(-c3nc4c([nH]3)CN(C(=O)C3CC(O)C3)C4)c2c1)c1c(Cl)cncc1Cl (stereo not shown)
*A* 7.1

*Q* Look up IC50: CC(Oc1ccc2[nH]nc(-c3nc4c([nH]3)CN(C)C4)c2c1)c1c(Cl)cncc1Cl (stereo not shown)
*A* 25.6

*Q* Data request, read-out IC50, for C[C@@H](Oc1ccc2[nH]nc(-c3nc4c([nH]3)CN(C3CCCN(C)C3)C4)c2c1)c1c(Cl)cncc1Cl (stereo partly shown)
*A* 15.7

*Q* Give its IC50 value. Item: CC(Oc1ccc2[nH]nc(-c3nc4c([nH]3)CN(C(=O)C3CC3)C4)c2c1)c1c(Cl)cncc1Cl (stereo not shown)
*A* 10

*Q* For the compound C[C@@H](Oc1ccc2[nH]nc(-c3nc4c([nH]3)CN(C(=O)OCCN(C)C)C4)c2c1)c1c(Cl)cncc1Cl , what IC50 is on record?
*A* 3.3

---

target: FGFR3 V555M (Homo sapiens, UniProt P22607, V555M); construct: purchased Signalchem F06-12GG; test: Assay I: inhibitory activity against FGFR mutants (HTRF KinEASE-TK); assay type: biochemical; settings: ATP 20 μM, substrate TK 1 μM
Sequence (P22607 397-806 V555M limits assumed): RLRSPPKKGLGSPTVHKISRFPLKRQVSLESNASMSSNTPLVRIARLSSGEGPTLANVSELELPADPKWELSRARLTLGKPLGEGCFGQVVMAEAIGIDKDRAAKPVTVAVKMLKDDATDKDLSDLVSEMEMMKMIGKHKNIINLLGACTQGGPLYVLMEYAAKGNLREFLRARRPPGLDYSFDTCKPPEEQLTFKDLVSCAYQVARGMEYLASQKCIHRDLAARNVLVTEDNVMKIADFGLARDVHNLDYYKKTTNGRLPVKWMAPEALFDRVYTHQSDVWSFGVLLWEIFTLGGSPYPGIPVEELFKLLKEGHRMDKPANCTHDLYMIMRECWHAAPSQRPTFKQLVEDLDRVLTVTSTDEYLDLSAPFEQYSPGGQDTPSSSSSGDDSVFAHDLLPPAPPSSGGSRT
EXPERIMENTAL_READOUT: log10 IC50 (log10 of the value in nM)
Hello, just confirming the data are log10 of IC50 with units of nM.

Below are worked cases with known answers.
CC(Oc1ccc2[nH]nc(-c3nc4c([nH]3)CN(CC3CCN(C)CC3)C4)c2c1)c1c(Cl)cncc1Cl (stereo not shown) [Compound 2]    -1.30
CC(Oc1ccc2[nH]nc(-c3nc4c([nH]3)CN(C(=O)CN(C)C)C4)c2c1)c1c(Cl)cncc1Cl (stereo not shown) [Compound 14]    -1.52
CC(Oc1ccc2[nH]nc(-c3nc4c([nH]3)CN(C(=O)[C@@H]3CCNC3)C4)c2c1)c1c(Cl)cncc1Cl (stereo partly shown) [Compound 9]    -0.80
CC(Oc1ccc2[nH]nc(-c3nc4c([nH]3)CN(C(=O)N3CCN(C)CC3)C4)c2c1)c1c(Cl)cncc1Cl (stereo not shown) [Compound 1]    -0.47
C[C@@H](Oc1ccc2[nH]nc(-c3nc4c([nH]3)CN(C(=O)CN3CC[C@@H](O)C3)C4)c2c1)c1c(Cl)cncc1Cl [Compound 41]    -1.00

*Q* Param item = C[C@@H](Oc1ccc2[nH]nc(-c3nc4c([nH]3)CN(C(=O)CN3CC[C@H](O)C3)C4)c2c1)c1c(Cl)cncc1Cl [Compound 42] ; retrieve measured log10 IC50.
*A* -0.48

*Q* Query (compound): C[C@@H](Oc1ccc2[nH]nc(-c3nc4c([nH]3)CN(C(=O)[C@@H]3CCCCN3C)C4)c2c1)c1c(Cl)cncc1Cl [Compound 47] ; field requested: log10 IC50
*A* -0.85

---

molecular target: FGFR2 V564F (Homo sapiens, UniProt P21802, V564F); construct: purchased Signalchem F05-12FG; experiment: Assay I: inhibitory activity against FGFR mutants (HTRF KinEASE-TK); format: biochemical; conditions: ATP 10 μM, substrate TK 1 μM
Sequence (P21802 22-821 V564F): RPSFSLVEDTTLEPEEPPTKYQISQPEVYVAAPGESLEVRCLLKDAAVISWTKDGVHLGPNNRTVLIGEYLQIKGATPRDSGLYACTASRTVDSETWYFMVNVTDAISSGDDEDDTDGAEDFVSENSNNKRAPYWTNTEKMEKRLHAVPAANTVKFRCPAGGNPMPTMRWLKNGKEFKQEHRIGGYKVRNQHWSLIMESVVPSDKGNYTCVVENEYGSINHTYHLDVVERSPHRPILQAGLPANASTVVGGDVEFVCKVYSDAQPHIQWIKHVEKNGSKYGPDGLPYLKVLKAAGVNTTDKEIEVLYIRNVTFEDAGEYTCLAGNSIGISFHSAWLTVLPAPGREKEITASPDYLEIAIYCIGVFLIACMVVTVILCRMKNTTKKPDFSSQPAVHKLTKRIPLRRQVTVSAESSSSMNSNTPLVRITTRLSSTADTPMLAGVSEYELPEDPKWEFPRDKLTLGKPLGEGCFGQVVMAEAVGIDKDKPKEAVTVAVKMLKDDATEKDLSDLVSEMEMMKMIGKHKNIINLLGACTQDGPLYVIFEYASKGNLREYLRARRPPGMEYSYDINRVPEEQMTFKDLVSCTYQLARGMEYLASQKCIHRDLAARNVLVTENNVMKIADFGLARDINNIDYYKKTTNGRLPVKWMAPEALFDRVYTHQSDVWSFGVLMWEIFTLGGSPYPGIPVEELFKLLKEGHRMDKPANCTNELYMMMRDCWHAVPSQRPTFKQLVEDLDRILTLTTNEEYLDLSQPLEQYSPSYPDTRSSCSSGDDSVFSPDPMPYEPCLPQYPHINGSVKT
Examples of molecules with documented IC50 follow.
// note: answer is a bare numeric in nM

CC(C1CCN(C)CC1)N1Cc2nc(-c3n[nH]c4ccc(O[C@H](C)c5c(Cl)cncc5Cl)cc34)[nH]c2C1 (stereo partly shown) [Compound 37]    0.68
CCOC(=O)N1Cc2nc(-c3n[nH]c4ccc(OC(C)c5c(Cl)cncc5Cl)cc34)[nH]c2C1 (stereo not shown) [Compound 23]    0.48
CC(Oc1ccc2[nH]nc(-c3nc4c([nH]3)CN(C(=O)C3CC(O)C3)C4)c2c1)c1c(Cl)cncc1Cl (stereo not shown) [Compound 26]    0.17

# context switch: different molecule, same IC50
*Q* Dear colleague, I am looking for the recorded IC50 of the following molecule: C[C@@H](Oc1ccc2[nH]nc(-c3nc4c([nH]3)CN(C(=O)CN3CCCC3)C4)c2c1)c1c(Cl)cncc1Cl [Compound 40]
*A* 0.32

---

target: FGFR1 V561M (Homo sapiens, UniProt P11362, V561M); construct: purchased Signalchem F04-13G; experiment: Assay I: inhibitory activity against FGFR mutants (HTRF KinEASE-TK); assay type: biochemical; conditions: ATP 5 μM, substrate TK 1 μM
Sequence (P11362 22-822 V561M): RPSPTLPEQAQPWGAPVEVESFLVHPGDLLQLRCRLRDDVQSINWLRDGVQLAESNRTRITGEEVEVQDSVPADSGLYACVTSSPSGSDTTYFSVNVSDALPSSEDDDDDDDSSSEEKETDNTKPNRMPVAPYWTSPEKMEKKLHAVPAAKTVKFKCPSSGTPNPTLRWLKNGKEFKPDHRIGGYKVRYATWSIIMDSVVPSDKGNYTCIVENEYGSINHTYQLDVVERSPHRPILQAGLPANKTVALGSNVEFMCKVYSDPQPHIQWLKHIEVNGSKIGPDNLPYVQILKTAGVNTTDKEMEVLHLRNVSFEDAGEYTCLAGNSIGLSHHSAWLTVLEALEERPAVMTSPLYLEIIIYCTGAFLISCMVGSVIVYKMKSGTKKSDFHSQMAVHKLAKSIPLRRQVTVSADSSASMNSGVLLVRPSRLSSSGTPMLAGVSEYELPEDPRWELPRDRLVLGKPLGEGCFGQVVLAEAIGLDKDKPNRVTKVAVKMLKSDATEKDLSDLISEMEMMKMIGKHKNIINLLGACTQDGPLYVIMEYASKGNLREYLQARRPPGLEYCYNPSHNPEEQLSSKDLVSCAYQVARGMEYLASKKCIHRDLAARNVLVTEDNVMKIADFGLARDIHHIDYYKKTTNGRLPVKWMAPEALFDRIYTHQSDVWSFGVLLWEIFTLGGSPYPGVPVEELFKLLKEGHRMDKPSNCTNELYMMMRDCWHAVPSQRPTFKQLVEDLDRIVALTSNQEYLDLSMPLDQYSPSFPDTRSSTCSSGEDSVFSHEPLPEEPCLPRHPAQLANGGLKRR
Quick reference: log10 IC50 of the listed items.
Log scale reminder: IC50 in nM, then log10 taken.

*Q* Request the reported log10 IC50 associated with CC(Oc1ccc2[nH]nc(-c3nc4c([nH]3)CN(C(=O)N3CCOCC3)C4)c2c1)c1c(Cl)cncc1Cl (stereo not shown)
*A* -0.48

*Q* Any idea what log10 IC50 was measured for C[C@@H](Oc1ccc2[nH]nc(-c3nc4c([nH]3)CN(C(=O)CN3CCCC3)C4)c2c1)c1c(Cl)cncc1Cl ?
*A* -0.41

*Q* Bench note: what log10 IC50 did CC(Oc1ccc2[nH]nc(-c3nc4c([nH]3)CN(C)C4)c2c1)c1c(Cl)cncc1Cl (stereo not shown) show?
*A* -0.34

---

IC50 overview
target: FGFR3 V555M (Homo sapiens, UniProt P22607, V555M); construct: purchased Signalchem F06-12GG; assay: Assay I: inhibitory activity against FGFR mutants (HTRF KinEASE-TK); format: biochemical; details: ATP 20 μM, substrate TK 1 μM

For orientation, consider the following solved cases.
CC(Oc1ccc2[nH]nc(-c3nc4c([nH]3)CN(C(=O)C3CCN(C)CC3)C4)c2c1)c1c(Cl)cncc1Cl (stereo not shown)    0.12 nM
C[C@@H](Oc1ccc2[nH]nc(-c3nc4c([nH]3)CN(C(=O)[C@@H]3CCCCN3)C4)c2c1)c1c(Cl)cncc1Cl    0.33 nM
C[C@@H](Oc1ccc2[nH]nc(-c3nc4c([nH]3)CN(C(=O)CN3CCCCC3)C4)c2c1)c1c(Cl)cncc1Cl    0.35 nM

Turning now to a further record.
*Q* So what IC50 did C[C@@H](Oc1ccc2[nH]nc(-c3nc4c([nH]3)CN(C(=O)OCCN(C)C)C4)c2c1)c1c(Cl)cncc1Cl get with FGFR3 V555M (Homo sapiens, UniProt P22607, V555M)?
*A* 0.11 nM

---

biological target: FGFR2 V564F (Homo sapiens, UniProt P21802, V564F); construct: purchased Signalchem F05-12FG; experiment: Assay I: inhibitory activity against FGFR mutants (HTRF KinEASE-TK); type: biochemical; conditions: ATP 10 μM, substrate TK 1 μM
EXPERIMENTAL_READOUT: IC50
Could you kindly put the unit after your number?

// solved cases for IC50 follow
C[C@@H](Oc1ccc2[nH]nc(-c3nc4c([nH]3)CN(C(=O)CN3CCC3)C4)c2c1)c1c(Cl)cncc1Cl [Compound 51]    0.21 nM
CNC(=O)N1Cc2nc(-c3n[nH]c4ccc(O[C@H](C)c5c(Cl)cncc5Cl)cc34)[nH]c2C1 [Compound 33]    0.45 nM
C[C@@H](Oc1ccc2[nH]nc(-c3nc4c([nH]3)CN(C(=O)CN3CC(O)C3)C4)c2c1)c1c(Cl)cncc1Cl [Compound 52]    0.16 nM
C[C@@H](Oc1ccc2[nH]nc(-c3nc4c([nH]3)CN(C(=O)CN3CC[C@@H](O)C3)C4)c2c1)c1c(Cl)cncc1Cl [Compound 41]    0.23 nM
CC(Oc1ccc2[nH]nc(-c3nc4c([nH]3)CN(C(=O)C3CCN(C)CC3)C4)c2c1)c1c(Cl)cncc1Cl (centres unmarked) [Compound 6]    0.11 nM

*Q* Reported IC50 for CC(Oc1ccc2[nH]nc(-c3nc4c([nH]3)CN(C(=O)N3CC[C@H](O)C3)C4)c2c1)c1c(Cl)cncc1Cl (some centres unmarked) [Compound 10] : what is it?
*A* 0.33 nM

*Q* Quick check: IC50 of C[C@@H](Oc1ccc2[nH]nc(-c3nc4c([nH]3)CN(C(=O)OCCN(C)C)C4)c2c1)c1c(Cl)cncc1Cl [Compound 54] ?
*A* 0.15 nM

*Q* # lookup: IC50 of CC(Oc1ccc2[nH]nc(-c3nc4c([nH]3)CN(S(C)(=O)=O)C4)c2c1)c1c(Cl)cncc1Cl (centres unmarked) [Compound 16]
*A* 0.22 nM
